Values from the PETadex activity labels (doi:10.1002/cssc.202101062)

Proxy for plastic degradation overview
- Substrate: gfPET
- experimentalProtocol: Proxy for plastic degradation [Released monomer concentration (HPLC/LC-MS) (TPA+MHET+BHET)]
- experimentalSetup: 50 °C
Unit mmol/h implied. Number only.

>  <protein>
unnamed (protein) MDNPYERGPDPTTQSVEAARGPYAVSQITVGGQFGSYSGGTIYYPTSTADGKFGAVAIAPGFLSFQSSVAWLGPRLASQGFVVMTIDTGTIFDQPAQRGDQLLDALDFLTQRSSVKDRIDPNRLAVAGWSMGGGGSLEAAADRPSLKAAIPMAGWNLNTNWSRLTTPVLVVGVQNDLIAPVGSHSEPFYNSIRSEKAYLELAGGSHFTVTSANTPQAKLMISWLKRFVDNDTRYEQFICPGPSRGFSVSEYRSTCPF

>  <displayUnit>
mmol/h

>  <Proxy for plastic degradation>
0.2

$$$$
>  <protein>
unnamed (protein) MENPYERGPDPTTQSVEAARGPYAVSQITVGGQFGSYSGGTIYYPTSTADGKFGAVAIAPGFLSFQSSVAWLGPRIASQGFVVMTIDTGTIFDQPAQRGDQLLDALDFLTQRSSVKDRIDPNRLAVAGWSWGGGGSLEAAADRPSLKAAIPMAGWNLNTNWSRLTTPVLVVGVQNDLIAPVAMHSEPFYNSIRSEKAYLELAGGSHFTVTSANTPQAKLMISWLKRFVDNDTRYEQFICPGPSRGFSVSEYRSTCPY

>  <displayUnit>
mmol/h

>  <Proxy for plastic degradation>
0.1

$$$$

Now take the following protein into account.
# query: Proxy for plastic degradation of entry unnamed (protein) MDNPYERGPDPTTQSVEAARGPYAVSQITVGGQFGSYSGGTIYYPTSTTDGKFGAVAIAPGFLSFQSSVAWLGPRIASQGFVVMTIDTGTIFDQPAQRGDQLLDALDFLTQRSSVKDRIDPNRLAVAGWSMGGGGSLEAAADRPSLKAAIPMAGWNLNTNWSRLTTPVLVVGVQNDLIAPVAMHSEPFYNSIRSEKAYLELAGGSHFTVTSANTPQAKLMISWLKRFVDNDTRYEQFICPGPSRGFSVSEYRSTCPF 0.1
